Details: [M+Na]+; instrument: DT; stepped-field
property.name: collision cross section (N2) (Å²)
Give the quantity in Å², number only.

Answer with the recorded collision cross section (N2) for the compound listed here: C[C@@H]1NC(=O)N[C@@H]1CCCCCC(=O)O
159.12

For the compound C[C@]12CCC(=O)C=C1CC[C@@H]1[C@@H]2[C@@H](O)C[C@@]2(C)[C@H]1CC[C@]2(O)C(=O)CO , report collision cross section (N2).
213.91

Determine from records and report collision cross section (N2) for C[C@]12CC[C@H]3[C@@H](CCC4=CC(=O)CC[C@@]43C)[C@@H]1CC[C@@H]2O
206.07

Return collision cross section (N2) for the following compound: CCCCCCCC/C=C\CCCCCCCC(=O)OC[C@@H](O)COP(=O)([O-])OCC[N+](C)(C)C [LPC 18:1]
237.34

# return recorded collision cross section (N2) for entry CCCC(=O)C(=O)O
131.64

Identify the reported collision cross section (N2) for the following entry. C[C@@H]1OC(O)[C@H](O)[C@H](O)[C@H]1O (stereo partly drawn)
146.3

Report collision cross section (N2), nothing else, for this compound: Cc1ccc2c(c1)[C@H](Nc1nc(N)nc(C(C)F)n1)[C@@H](C)C2 (stereo partly drawn)
174.6

# return recorded collision cross section (N2) for input O=C(O)/C=C/C(=O)O
133.58

Give the reported value of collision cross section (N2) for this record: CC(=O)N[C@H](Cc1c[nH]c2ccccc12)C(=O)O
162.74

Note down collision cross section (N2) recorded for CCCCC/C=C\C/C=C\C/C=C\C=C\[C@@H](O)CCCC(=O)O
188.21

Give the value of collision cross section (N2) reported for the following: OC[C@H]1O[C@@H](O[C@H]2[C@H](O)[C@@H](O)[C@H](O[C@H]3[C@H](O)[C@@H](O)C(O)O[C@@H]3CO)O[C@@H]2CO)[C@H](O)[C@@H](O)[C@@H]1O (stereo partly drawn)
215.69

Given the compound O=c1ccn([C@@H]2O[C@H](COP(=O)(O)O)[C@@H](O)[C@H]2O)c(=O)[nH]1 [Uridine 5'-Monophosphate] , write its reported collision cross section (N2).
175.14

Return the recorded collision cross section (N2) value; entry: CCCCC/C=C\C[C@@H](O)/C=C/C=C\C/C=C\CCCC(=O)O [12R-HETE]
194.4

Look up and report measured collision cross section (N2) for this entry: Cc1cc2nc3c(=O)[nH]c(=O)nc-3n(C[C@H](O)[C@H](O)[C@H](O)CO)c2cc1C
199.4

Respond only with collision cross section (N2) recorded for C[C@]12CC[C@@H](O)C[C@H]1CC[C@@H]1[C@@H]2[C@@H](O)C[C@@]2(C)[C@H]1CC[C@]2(O)[C@H](O)CO
204.59

# return recorded collision cross section (N2) for entry CN(C)[C@@H]1C(=O)C(C(N)=O)=C(O)[C@@]2(O)C(=O)C3=C(O)c4c(O)cccc4[C@@](C)(O)[C@H]3C[C@@H]12
212.5

Quote collision cross section (N2) reported for OC[C@H]1O[C@@H](O[C@H]2[C@H](O)[C@@H](O)[C@H](O)O[C@@H]2CO)[C@H](O)[C@@H](O)[C@H]1O please.
178.83

// Input: COc1ccc([C@@H]2CC(=O)c3c(O)cc(O)cc3O2)cc1O . Output its collision cross section (N2) only.
184.45

Return value of collision cross section (N2) for input CCCCC[C@H](O)/C=C/[C@H]1OC(O)C[C@H](O)[C@@H]1C/C=C\CCCC(=O)O (stereo partly drawn) , no commentary.
202.08

Determine its reported collision cross section (N2): C=C(C)[C@H]1Cc2c(ccc3c2O[C@@H]2COc4cc(OC)c(OC)cc4[C@@H]2C3=O)O1
213.17

Indicate the recorded collision cross section (N2) value for this compound: OC[C@H]1O[C@H](OC[C@H]2O[C@H](OC[C@H]3OC(O)[C@H](O)[C@@H](O)[C@@H]3O)[C@H](O)[C@@H](O)[C@@H]2O)[C@H](O)[C@@H](O)[C@@H]1O (stereo partly drawn)
210.83

Given CCCCCC(O)/C=C/C=C\CCCCCCCC(=O)O (stereo not drawn) , respond with its collision cross section (N2).
191.83

Supply reported collision cross section (N2) belonging to this compound: O=c1c(O)c(-c2ccc(O)cc2)oc2cc(O)cc(O)c12
187.2
